Origin of measurements: patent US20100168176A1

- Tested on: FAO
- TEST: FAO SC 150 / FAO Max
- CONDITION INFO: at the concentration given under E18

>  <COMPOUND>
CCCCCCCCC1(C)SC(=O)C=C1OCC(=O)NNc1ccc(C(F)(F)F)cc1 (stereo not shown) [Compound 12]

>  <FAO Max>
118% at

$$$$
>  <COMPOUND>
CCCCCCCCC1(C)SC(=O)C=C1OCC(=O)NNc1cc(C(F)(F)F)ccc1Cl (stereo not shown) [Compound 16]

>  <FAO Max>
137% @

$$$$
>  <COMPOUND>
CCCCCCCCC1(C)SC(=O)C=C1OCC(=O)NNC(=O)c1ccncc1 (stereo not shown) [Compound 20]

>  <FAO Max>
89% @

$$$$
>  <COMPOUND>
CCCCCCCCC1(C)SC(=O)C=C1OCC(=O)NNc1ccccc1Cl (stereo not shown) [Compound 19]

>  <FAO Max>
90% @

$$$$
>  <COMPOUND>
CCCCCCCCC1(C)SC(=O)C=C1OCC(=O)NNc1ccc(Cl)cc1Cl (stereo not shown) [Compound 14]

>  <FAO Max>
100% at

$$$$
>  <COMPOUND>
CCCCCCCCC1(C)SC(=O)C=C1OCC(=O)NNc1ccc(OC)cc1 (stereo not shown) [Compound 13]

>  <FAO Max>
103% at

$$$$
>  <COMPOUND>
CCCCCCCCC1(C)SC(=O)C=C1OCC(=O)NNc1ccccc1 (stereo not shown) [Compound 10]

>  <FAO Max>
126% at

$$$$
>  <COMPOUND>
CCCCCCCCC1(C)SC(=O)C=C1OCC(=O)NNc1ccc(Cl)c(Cl)c1 (stereo not shown) [Compound 15]

>  <FAO Max>
100% at

$$$$
>  <COMPOUND>
CCCCCCCCC1(C)SC(=O)C=C1OCC(=O)NNc1nc2ccccc2s1 (single isomer, unassigned) [Compound 17]

>  <FAO Max>
167% @

$$$$
>  <COMPOUND>
CCCCCCCCC1(C)SC(=O)C=C1OCC(=O)NNc1cccc(C)c1 (stereo not shown) [Compound 11]

>  <FAO Max>
116% @

$$$$
